Target: DRD4 (Homo sapiens, UniProt P21917)
Construct: purchased Promega (in-house HiBiT-GPCR construct library, NanoBRET)
Sequence (P21917 whole entry): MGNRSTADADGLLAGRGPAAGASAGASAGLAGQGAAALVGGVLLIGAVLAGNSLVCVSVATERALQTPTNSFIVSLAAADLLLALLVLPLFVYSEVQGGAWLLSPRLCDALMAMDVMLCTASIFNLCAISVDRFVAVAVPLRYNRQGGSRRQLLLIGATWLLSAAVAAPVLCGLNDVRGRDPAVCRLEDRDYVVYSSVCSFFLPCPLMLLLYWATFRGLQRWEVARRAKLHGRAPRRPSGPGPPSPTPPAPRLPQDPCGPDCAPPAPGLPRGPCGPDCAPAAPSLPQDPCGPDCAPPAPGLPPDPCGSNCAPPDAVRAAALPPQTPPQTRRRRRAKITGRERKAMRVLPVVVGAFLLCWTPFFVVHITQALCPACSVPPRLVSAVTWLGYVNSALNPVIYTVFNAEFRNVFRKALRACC
Assay: NanoBRET screen HiBiT-DRD4 in HEK293
Assay type: binding
Details: DRD4; tracer 0.1μM
What NanoBRET Fold Response was measured for each of the following?

Which NanoBRET Fold Response value belongs to `CC(C)N(CC[C@H](c1ccccc1)c1cc(CCNC(=O)c2ccc(CNC(=O)CCc3ccc4n3[B-](F)(F)[N+]3=C(c5ccc[nH]5)C=CC3=C4)cc2)ccc1O)C(C)C` ?
0.94

Which NanoBRET Fold Response value belongs to `N#CN=C(NCCCOc1cccc(CN2CCCCC2)c1)NCCNC(=O)CCOCCOCCOCCOCCNC(=O)CCc1ccc2n1[B-](F)(F)[N+]1=C(c3ccc[nH]3)C=CC1=C2` ?
1.00

Which NanoBRET Fold Response value belongs to Cc1nc2n(c(=O)c1CCN1CCC(c3noc4cc(F)ccc34)CC1)CCCC2OC(=O)NCCOCCOCCOCCOCCNC(=O)CCc1ccc2n1[B-](F)(F)[N+]1=C(c3ccc[nH]3)C=CC1=C2 (centres unmarked) ?
1.55

Which NanoBRET Fold Response value belongs to `COc1ccccc1N1CCN(CCCCN2C(=O)c3ccc(CNC(=O)CCOCCNC(=O)c4ccc(CNC(=O)CCc5ccc6n5[B-](F)(F)[N+]5=C(c7ccc[nH]7)C=CC5=C6)cc4)cc3C2=O)CC1` ?
1.23

Which NanoBRET Fold Response value belongs to `O=C(CCc1ccc2n1[B-](F)(F)[N+]1=C(c3ccc[nH]3)C=CC1=C2)NCCOCCOCCNC(=O)OCCOCCN1CCN(C2=Nc3ccccc3Sc3ccccc32)CC1` ?
1.05
